# assay system: UniProtKB Q06124
# Sequence (Q06124 1-593): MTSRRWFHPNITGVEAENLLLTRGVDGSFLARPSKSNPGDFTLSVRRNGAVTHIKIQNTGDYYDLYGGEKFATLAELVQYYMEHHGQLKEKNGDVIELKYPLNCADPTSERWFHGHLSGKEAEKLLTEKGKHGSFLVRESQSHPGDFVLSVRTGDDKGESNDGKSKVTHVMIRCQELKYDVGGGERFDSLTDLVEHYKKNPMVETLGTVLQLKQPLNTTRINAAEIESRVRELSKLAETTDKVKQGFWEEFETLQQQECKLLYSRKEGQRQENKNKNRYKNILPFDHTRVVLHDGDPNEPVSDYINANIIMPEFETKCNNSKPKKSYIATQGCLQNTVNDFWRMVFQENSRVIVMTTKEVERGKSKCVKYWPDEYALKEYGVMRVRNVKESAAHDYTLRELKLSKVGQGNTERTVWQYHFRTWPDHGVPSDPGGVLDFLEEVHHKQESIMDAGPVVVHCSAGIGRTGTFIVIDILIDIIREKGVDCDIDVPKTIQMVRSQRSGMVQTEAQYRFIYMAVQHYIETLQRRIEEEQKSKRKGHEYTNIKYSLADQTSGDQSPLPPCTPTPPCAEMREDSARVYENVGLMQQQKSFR
# protocol notes: Measurement of SHP2 protein degradation in NCI-H358 cells (western blotting)
# Format: cell-based
# Design: endogenous in cells; host or cells: NCI-H358
# measurement context: 0.1 μM, harvested after 24 hours
property: SHP2% degradation (%)
Reply numerically in %, unit not repeated.

molecule | recorded number
CC(=O)N[C@H](C(=O)N1C[C@H](O)C[C@H]1C(=O)NCc1ccc(-c2scnc2C)cc1O[C@H]1CC[C@H](C(=O)N2CCC(Nc3nccc(Sc4cnc(N5CCC(C)(CN)CC5)c(CO)n4)c3Cl)CC2)CC1)C(C)(C)C | 99.4
CC(=O)N[C@H](C(=O)N1C[C@H](O)C[C@H]1C(=O)NCc1ccc(-c2scnc2C)cc1O[C@H]1CC[C@H](C(=O)N2CC(Nc3nccc(Sc4cnc(N5CCC(C)(CN)CC5)c(CO)n4)c3Cl)C2)CC1)C(C)(C)C | 99.1
CC(=O)N[C@H](C(=O)N1C[C@H](O)C[C@H]1C(=O)NCc1ccc(-c2scnc2C)cc1O[C@H]1CC[C@H](C(=O)N2CC(Nc3nccc(Sc4cnc(N5CCC6(CC5)CO[C@@H](C)[C@H]6N)cn4)c3Cl)C2)CC1)C(C)(C)C | 95.9
CC(=O)N[C@H](C(=O)N1C[C@H](O)C[C@H]1C(=O)NCc1ccc(-c2scnc2C)cc1O[C@H]1CC[C@H](C(=O)N2CC(Nc3cccc(Sc4cnc(N5CCC(C)(N)CC5)cn4)c3Cl)C2)CC1)C(C)(C)C | 98.5
CC(=O)N[C@H](C(=O)N1C[C@H](O)C[C@H]1C(=O)NCc1ccc(-c2scnc2C)cc1OC1CCN(C(=O)C2CCN(c3nccc(Sc4cnc(N5CCC6(CC5)CO[C@@H](C)[C@H]6N)c(CO)n4)c3Cl)CC2)CC1)C(C)(C)C | 99.5
CC(=O)N[C@H](C(=O)N1C[C@H](O)C[C@H]1C(=O)NCc1ccc(-c2scnc2C)cc1OC1CCN(C(=O)C2CCN(c3nccc(Sc4cnc(N5CCC6(CC5)CO[C@@H](C)[C@H]6N)cn4)c3Cl)CC2)CC1)C(C)(C)C | 98.0
Cc1cc(C(C(=O)N2C[C@H](O)C[C@H]2C(=O)NCc2ccc(-c3scnc3C)cc2OC2CCN(C(=O)C3CCN(c4nccc(Sc5cnc(N6CCC7(CC6)CO[C@@H](C)[C@H]7N)cn5)c4Cl)CC3)CC2)C(C)C)on1 (stereo partly drawn) | 99.7
Cc1cn([C@H](C(=O)N2C[C@H](O)C[C@H]2C(=O)NCc2ccc(C#N)cc2OC2CCN(C(=O)C3CCN(c4nccc(Sc5cnc(N6CCC7(CC6)CO[C@@H](C)[C@H]7N)c(CO)n5)c4Cl)CC3)CC2)C(C)C)nn1 | 99.8

## Input For the molecule shown here, Cc1cc(C(C(=O)N2C[C@H](O)C[C@H]2C(=O)NCc2ccc(-c3scnc3C)cc2OC2CCN(C(=O)C3CCN(c4nccc(Sc5cnc(N6CCC(C)(N)CC6)c(CO)n5)c4Cl)CC3)CC2)C(C)C)on1 (stereo partly drawn) , give the reported SHP2% degradation.
## Output 99.7

Every entry's value here was drawn from patent US20260144788A1.
